# Tested on: SEM cells
# ASSAY_PROCEDURE: cell viability relative to DMSO control; higher = less cytotoxic
# EXPERIMENTAL_SETUP: RPMI 5 mM glucose + 10% FBS; 48 h; 46.1 µM
Simple rule here: cell viability less than 60% is t, otherwise f.

[[record]]
compound = "CC(NCc1ccc2c(c1)[nH]/c(=N\\C(=O)c1ccc(-c3cn[nH]c3)s1)n2CC(C)(C)O)C(C)(C)C (stereo not given)"
measurement_target = "SEM cells"
assigned_category = "t"

[[record]]
compound = "C[C@@H]1C[C@H]2[C@@H]3CC\\C4=C\\C(=O)\\C=C/[C@]4(C)[C@@]3(Cl)[C@@H](O)C[C@]2(C)[C@@]1(OC(=O)C5=CC=CO5)C(=O)CCl"
measurement_target = "SEM cells"
assigned_category = "t"

[[record]]
compound = "C#Cc1cccc(Nc2ncnc3cc(OC)c(OCCCCCCC(=O)NO)cc23)c1"
measurement_target = "SEM cells"
assigned_category = "t"

[[record]]
compound = "CN(C)CCN(Cc1ccc(Cl)cc1)c1ccccn1.Cl"
measurement_target = "SEM cells"
assigned_category = "f"

[[record]]
compound = "O=C(CCc1ccc(O)cc1)c1c(O)cc(O)cc1O[C@@H]1O[C@H](CO)[C@@H](O)[C@H](O)[C@H]1O"
measurement_target = "SEM cells"
assigned_category = "f"

[[record]]
compound = "CN[C@@H]1C[C@H]2O[C@@](C)([C@@H]1OC)n1c3ccccc3c3c4c(c5c6ccccc6n2c5c31)C(=O)N[C@H]4O"
measurement_target = "SEM cells"
assigned_category = "t"

[[record]]
compound = "Cc1ncc([N+](=O)[O-])n1CCO"
measurement_target = "SEM cells"
assigned_category = "f"

[[record]]
compound = "CC[C@@]1(O)C[C@H](O[C@H]2C[C@H](N(C)C)[C@H](O[C@H]3C[C@H](O)[C@H](O[C@H]4CCC(=O)[C@H](C)O4)[C@H](C)O3)[C@H](C)O2)c2c(cc3c(c2O)C(=O)c2c(O)cccc2C3=O)[C@H]1C(=O)OC"
measurement_target = "SEM cells"
assigned_category = "t"

[[record]]
compound = "COc1ccc(Nc2cc(-c3cnc(N)nc3)nc(N3CCOCC3)n2)cn1"
measurement_target = "SEM cells"
assigned_category = "t"

[[record]]
compound = "CCN(CC)CCN1C(=O)\\C(=N/C2=CC=CC=C12)CC3=CC=C(OC)C=C3"
measurement_target = "SEM cells"
assigned_category = "f"

[[record]]
compound = "Cc1[nH]c(/C=C2\\C(=O)Nc3ccc([S+](=O)([O-])Cc4c(Cl)cccc4Cl)cc32)c(C)c1C(=O)N1CCC[C@@H]1CN1CCCC1"
measurement_target = "SEM cells"
assigned_category = "t"

[[record]]
compound = "CCNC(=O)[C@H]1O[C@@H](n2cnc3c(N)nc(NCCc4ccc(CCC(=O)O)cc4)nc32)[C@H](O)[C@@H]1O"
measurement_target = "SEM cells"
assigned_category = "f"

[[record]]
compound = "NC(=O)Nc1cc(-c2ccc(CN3CCOCC3)cc2)sc1C(N)=O"
measurement_target = "SEM cells"
assigned_category = "t"

[[record]]
compound = "CN[S+](=O)([O-])CCc1ccc2[nH]cc(C3CCN(C)CC3)c2c1"
measurement_target = "SEM cells"
assigned_category = "f"


###

# Test system: P12-Ichikawa
# ASSAY_PROCEDURE: cell viability relative to DMSO control; higher = less cytotoxic
# EXPERIMENTAL_SETUP: HPLM + 10% dialyzed FBS; 48 h; 1.71 µM
MEASUREMENT_TYPE: cell viability (%)

[[record]]
smiles_notation = "COc1ccc(Nc2cc(-c3cnc(N)nc3)nc(N3CCOCC3)n2)cn1"
number = 89.9

[[record]]
smiles_notation = "COc1cc(OC)c(NC(=O)Nc2cc(C)on2)cc1Cl"
number = 106

[[record]]
smiles_notation = "CC(C)[C@H](CO)Nc1nc(Nc2cccc(Cl)c2)c2ncn(C(C)C)c2n1"
number = 104


###

# Tested on: SEM cells
# ASSAY_PROCEDURE: cell viability relative to DMSO control; higher = less cytotoxic
# EXPERIMENTAL_SETUP: RPMI 5 mM glucose + 10% dialyzed FBS; 48 h; 0.0211 µM
This listing pairs compounds with measured cell viability.
MEASUREMENT_TYPE: cell viability (%)

[[record]]
smiles_notation = "Cc1ncc([N+](=O)[O-])n1CCO"
measurement_target = "SEM cells"
number = 122

[[record]]
smiles_notation = "C=CCn1c(=O)c2cnc(Nc3ccc(N4CCN(C)CC4)cc3)nc2n1-c1cccc(C(C)(C)O)n1"
measurement_target = "SEM cells"
number = 93.5

[[record]]
smiles_notation = "CC(C)C[C@H](NC(=O)[C@H](Cc1ccccc1)NC(=O)c1cnccn1)B(O)O"
measurement_target = "SEM cells"
number = 31.1

[[record]]
smiles_notation = "CCN(C)C(=O)Oc1cccc([C@H](C)N(C)C)c1"
measurement_target = "SEM cells"
number = 121


###

# Tested on: NOMO1
# ASSAY_PROCEDURE: cell viability relative to DMSO control; higher = less cytotoxic
# EXPERIMENTAL_SETUP: RPMI 5 mM glucose + 10% FBS; 48 h; 0.00234 µM
Entries annotated with measured cell viability
MEASUREMENT_TYPE: cell viability (%)

[[record]]
compound = "Cc1cc(O)c2c(c1)C(=O)c1cc(O)cc(O)c1C2=O"
measurement_type = "cell viability"
unit = "%"
number = 104

[[record]]
compound = "C[C@@H]1C[C@H]2[C@@H]3CC\\C4=C\\C(=O)\\C=C/[C@]4(C)[C@@]3(Cl)[C@@H](O)C[C@]2(C)[C@@]1(OC(=O)C5=CC=CO5)C(=O)CCl"
measurement_type = "cell viability"
unit = "%"
number = 111

[[record]]
compound = "C[S+]([O-])c1ccc(-c2nc(-c3ccc(F)cc3)c(-c3ccncc3)[nH]2)cc1 (stereo not drawn)"
measurement_type = "cell viability"
unit = "%"
number = 90.4


###

# Tested on: SEM cells
# ASSAY_PROCEDURE: cell viability relative to DMSO control; higher = less cytotoxic
# EXPERIMENTAL_SETUP: RPMI 5 mM glucose + 10% FBS; 48 h; 0.0211 µM
Quick reference: cell viability of the listed items.
MEASUREMENT_TYPE: cell viability (%)

[[record]]
compound = "CO[C@H]1C[C@@H]2CC[C@@H](C)[C@@](O)(O2)C(=O)C(=O)N2CCCC[C@H]2C(=O)O[C@H]([C@H](C)C[C@@H]2CC[C@@H](OCCO)[C@H](OC)C2)CC(=O)[C@H](C)/C=C(/C)[C@@H](O)[C@@H](OC)C(=O)[C@H](C)C[C@H](C)\\C=C/C=C\\C=C/1C"
number = 71.7

[[record]]
compound = "COC1=CC2=C(C=C1OC)[C@H]3[C@@H](CO2)OC4=C(C=CC5=C4\\C=C/C(C)(C)O5)C3=O"
number = 95.6

[[record]]
compound = "COc1ccc(Nc2cc(-c3cnc(N)nc3)nc(N3CCOCC3)n2)cn1"
number = 115

[[record]]
compound = "O=C1CCc2ccc(OCCCCN3CCN(c4cccc(Cl)c4Cl)CC3)cc2N1"
number = 24.5

[[record]]
compound = "CN(C)c1ccc2cc(C(=O)N[C@@H](CCCNC(=N)CCl)C(=O)NCc3ccccc3)ccc2c1"
number = 111

[[record]]
compound = "CC(C)NCC(O)c1ccc(NS(C)(=O)=O)cc1 (stereo unspecified)"
number = 106


###

# Test system: SEM cells
# ASSAY_PROCEDURE: AUC of viability dose-response curve (% viability x log10 dose units); higher = less sensitive
# EXPERIMENTAL_SETUP: RPMI 5 mM glucose + 10% FBS; 48 h
MEASUREMENT_TYPE: AUC of viability dose-response curve

[[record]]
molecule = "O=C(CCc1ccc(O)cc1)c1c(O)cc(O)cc1O[C@@H]1O[C@H](CO)[C@@H](O)[C@H](O)[C@H]1O"
measurement_target = "SEM cells"
number = 426

[[record]]
molecule = "CC[C@@]1(O)C[C@H](O[C@H]2C[C@H](N(C)C)[C@H](O[C@H]3C[C@H](O)[C@H](O[C@H]4CCC(=O)[C@H](C)O4)[C@H](C)O3)[C@H](C)O2)c2c(cc3c(c2O)C(=O)c2c(O)cccc2C3=O)[C@H]1C(=O)OC"
measurement_target = "SEM cells"
number = 225

[[record]]
molecule = "CC(C)NCC(O)COc1ccc(CCOCC2CC2)cc1 (stereo not drawn)"
measurement_target = "SEM cells"
number = 458

[[record]]
molecule = "CC(NCc1ccc2c(c1)[nH]/c(=N\\C(=O)c1ccc(-c3cn[nH]c3)s1)n2CC(C)(C)O)C(C)(C)C (stereo not drawn)"
measurement_target = "SEM cells"
number = 194

[[record]]
molecule = "CC(C)(C)NC(=O)[C@@H]1CN(Cc2cccnc2)CCN1C[C@@H](O)C[C@@H](Cc1ccccc1)C(=O)N[C@H]1c2ccccc2C[C@H]1O.O=S(=O)(O)O"
measurement_target = "SEM cells"
number = 455

[[record]]
molecule = "COc1ccnc(C[S+]([O-])c2nc3cc(OC(F)F)ccc3[nH]2)c1OC (stereo not drawn)"
measurement_target = "SEM cells"
number = 431

[[record]]
molecule = "COc1ccc2c(c1OC)CN1CCc3cc4c(cc3C1C2)OCO4 (stereo not drawn)"
measurement_target = "SEM cells"
number = 263

[[record]]
molecule = "OCCCNc1cc(-c2ccnc(Nc3cccc(Cl)c3)n2)ccn1"
measurement_target = "SEM cells"
number = 260


Value source: the supplement of paper PMC11451515
